test: NCI Yeast Anticancer Drug Screen. Data for the mec2-1 strain (AID 157); settings: S. cerevisiae mec2-1 strain, at 5.0 µM (retest, dose inferred, filed as 0.5), active compounds read high
This is part of a sample that, as a whole, favours compounds with a hit. Of some 79,000 tested, about 15% had one in any assay. Calls of active or inactive are those of the source. No stated cut-off is given here; in the data, active means growth inhibition above about 70%; inactive means the rest.
Collected growth inhibition values appear next to each entry.
attribute_measured: growth inhibition

Cc1c(-c2ccccc2)ccnc1/C=N/NC(=S)Nc1ccccc1 :: 1% (inactive)
C=C1C[C@H](O)[C@H]2C(C[Se]c3ccccc3)C(=O)O[C@@H]2[C@H]2[C@H](C)C(O)C[C@@H]12 (stereo partly specified) :: 2% (inactive)
CCCCCCCCCCCCCCCCNC(C)c1ccccc1 (stereo unspecified) :: -1% (inactive)
Nc1ccccc1N=Nc1c(S(=O)(=O)O)cc2cc(S(=O)(=O)O)cc(O)c2c1O :: 3% (inactive)
COc1ccc2c3c(c4cc(OC)c(OC)cc4c2c1)CN1CCC[C@H]1[C@@H]3O :: 7% (inactive)
O=C(CCCl)Nc1cc2ccccc2oc1=O :: -2% (inactive)
C/C=C/C=C1\C=Cc2c(C(=O)OC)coc(=O)c21 :: 14% (inactive)
N#CC(c1c(Cl)cccc1N1CCCCC1)N1CCCCC1 (stereo unspecified) :: 34% (inactive)
Cc1ccc(C2SCC(=O)N2c2ccc(-n3c(-c4ccccc4)nc4ccccc4c3=O)cc2)cc1 (stereo unspecified) :: -8% (inactive)
O=C1c2ccccc2C(=O)C2OC12 (stereo unspecified) :: 48% (inactive)
Oc1cc(O)cc(O)c1 :: -2% (inactive)
